Source listed as PubChem BioAssay AID248.

Test system: L1210 leukemia ip in BDF1 mice, survival T/C
Assay: NCI In Vivo Anticancer Drug Screen. Data for tumor model L1210 Leukemia (intraperitoneal) in B6D2F1 (BDF1) mice
Settings: endpoint: mean survival time; dose: 100.0 mg/kg/injection; schedule: Q01DX001 (ip); vehicle: saline; higher = longer survival
Toxic doses and inconclusive results are not listed.
observation type: T/C

Consider OCC1CC(n2cnc3c(=S)nc[nH]c32)C(O)C1O (stereo unspecified) . Its measured T/C is 96 % of control

Consider `Cc1ccc(C(C)C)c(OC(=O)Nc2ccc(S(=O)(=O)N(C)C)cc2)c1` . Its measured T/C is 103 % of control

Consider COC(=O)CCC(N=C=O)C(=O)OC (stereo unspecified) . Its measured T/C is 101 % of control

Consider N#CC(SC(=N)N)c1ccccc1 (stereo unspecified) . Its measured T/C is 103 % of control

Consider CCOC(Nc1ccccc1[N+](=O)[O-])C(=O)c1ccccc1 (stereo unspecified) . Its measured T/C is 91 % of control

Consider `Cc1cc(C)c(S(=O)(=O)O)c(Cc2cccc3ccccc23)c1` . Its measured T/C is 93 % of control

###

System: L1210 leukemia ip in BDF1 mice, survival T/C
Assay: NCI In Vivo Anticancer Drug Screen. Data for tumor model L1210 Leukemia (intraperitoneal) in B6D2F1 (BDF1) mice
Settings: endpoint: mean survival time; dose: 50.0 mg/kg/injection; schedule: Q01DX009 (ip); vehicle: saline; higher = longer survival
Toxic doses and inconclusive results are not listed.
observation type: T/C

Consider C=C1C(=O)OC2CC(C)C3CC(=O)C(C)=C3C(O)C12 (configuration not stated) . Its measured T/C is 98 % of control

Consider `CCCCNC(C)(C)CS` . Its measured T/C is 102 % of control

Consider `C/C(=N\[N+](C)(C)C)c1ccc(Br)cc1` . Its measured T/C is 91 % of control

Consider C=CC1COC=C2CN3CCc4cc(OC)c(O)cc4C3CC21 (configuration not stated) . Its measured T/C is 100 % of control

Consider `CN1CCC=C(C(=O)N2c3ccccc3Sc3ccccc32)C1` . Its measured T/C is 96 % of control

Consider OCC(I)C(CO)[n+]1ccccc1 (configuration not stated) . Its measured T/C is 101 % of control

Consider `COC(=O)CC/C(C)=N\NC(=O)c1ccc[n+](C)c1` . Its measured T/C is 100 % of control

Consider `CCN(CC)CCc1ccccn1` . Its measured T/C is 100 % of control

Consider `NCCO[Si](OCCN)(OCCN)OCCN` . Its measured T/C is 93 % of control

Consider `CC(C)(C)CC(C)(C)c1ccc(OCCO)cc1` . Its measured T/C is 97 % of control

Consider `CC(=O)OCc1ccc(-n2c(C(F)(F)F)nc3nc(Cl)c(Cl)nc32)o1` . Its measured T/C is 97 % of control

Consider `Cc1ccc(S(=O)(=O)OCC2(COS(=O)(=O)c3ccc(C)cc3)CCC2(COS(=O)(=O)c2ccc(C)cc2)COS(=O)(=O)c2ccc(C)cc2)cc1` . Its measured T/C is 97 % of control

###

Test system: L1210 leukemia ip in BDF1 mice, survival T/C
Test: NCI In Vivo Anticancer Drug Screen. Data for tumor model L1210 Leukemia (intraperitoneal) in B6D2F1 (BDF1) mice
Conditions: endpoint: mean survival time; dose: 100.0 mg/kg/injection; schedule: Q04DX003 (ip); vehicle: carboxymethylcellulose (CMC); higher = longer survival
Toxic doses and inconclusive results are not listed.
observation type: T/C

Consider Nc1ccccc1SC1CC(=O)N(c2ccc(F)cc2)C1=O (stereo not given) . Its measured T/C is 92 % of control

Consider `[O-]c1c[n+](-c2ccc3ccccc3c2)no1` . Its measured T/C is 114 % of control

Consider `O/N=C\c1ccnc2ccccc12` . Its measured T/C is 97 % of control

Consider `O=C(O)/C=C/c1cnccn1` . Its measured T/C is 103 % of control

Consider `CCCCCCCC(=O)N(CCCCC)CCCCC` . Its measured T/C is 101 % of control
